Test System: Kappa-type opioid receptor (Homo sapiens, UniProt P41145, E297A)
Sequence (P41145 whole entry E297A): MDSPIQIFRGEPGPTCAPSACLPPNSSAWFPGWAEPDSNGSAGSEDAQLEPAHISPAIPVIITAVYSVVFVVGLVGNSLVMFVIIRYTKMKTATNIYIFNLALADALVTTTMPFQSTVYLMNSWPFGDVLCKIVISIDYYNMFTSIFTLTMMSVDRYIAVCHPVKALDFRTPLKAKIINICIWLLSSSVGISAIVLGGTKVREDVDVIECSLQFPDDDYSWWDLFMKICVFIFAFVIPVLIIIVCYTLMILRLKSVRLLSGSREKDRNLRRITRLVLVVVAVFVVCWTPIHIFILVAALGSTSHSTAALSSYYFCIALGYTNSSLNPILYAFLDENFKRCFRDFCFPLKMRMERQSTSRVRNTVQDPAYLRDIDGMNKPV
Experiment Notes: Binding affinity using [3H]diprenorphine as the radioligand against E297A mutant Opioid receptor kappa 1 in COS-7 cells
Measurement Name: pKi
Quick note: pKi means taking -log10 of the concentration in moles per liter.

Field pKi (system: Kappa-type opioid receptor (Homo sapiens, UniProt P41145, E297A)) for entry CN1CC[C@]23c4c5ccc(O)c4O[C@H]2c2[nH]c4c(c2C[C@H]3[C@H]1C5)C[C@@]1(O)[C@H]2Cc3ccc(O)c5c3[C@@]1(CCN2CC1CC1)[C@H]4O5 = 7.40

Field pKi (system: Kappa-type opioid receptor (Homo sapiens, UniProt P41145, E297A)) for entry COc1ccc2c3c1O[C@H]1c4[nH]c5c(c4C[C@@]4(O)[C@@H](C2)N(CC2CC2)CC[C@]314)C[C@@]1(O)[C@H]2Cc3ccc(O)c4c3[C@@]1(CCN2CC1CC1)[C@H]5O4 = 7.77

Field pKi (system: Kappa-type opioid receptor (Homo sapiens, UniProt P41145, E297A)) for entry CC(=O)N1CC[C@]23c4c5ccc(O)c4O[C@H]2c2[nH]c4c(c2C[C@@]3(O)[C@H]1C5)C[C@@]1(O)[C@H]2Cc3ccc(O)c5c3[C@@]1(CCN2CC1CC1)[C@H]4O5 = 6.98

* * *

Here the recorded Ki is given for each entry.
Test System: Mu-type opioid receptor (Homo sapiens, UniProt P35372)
Sequence (P35372 whole entry): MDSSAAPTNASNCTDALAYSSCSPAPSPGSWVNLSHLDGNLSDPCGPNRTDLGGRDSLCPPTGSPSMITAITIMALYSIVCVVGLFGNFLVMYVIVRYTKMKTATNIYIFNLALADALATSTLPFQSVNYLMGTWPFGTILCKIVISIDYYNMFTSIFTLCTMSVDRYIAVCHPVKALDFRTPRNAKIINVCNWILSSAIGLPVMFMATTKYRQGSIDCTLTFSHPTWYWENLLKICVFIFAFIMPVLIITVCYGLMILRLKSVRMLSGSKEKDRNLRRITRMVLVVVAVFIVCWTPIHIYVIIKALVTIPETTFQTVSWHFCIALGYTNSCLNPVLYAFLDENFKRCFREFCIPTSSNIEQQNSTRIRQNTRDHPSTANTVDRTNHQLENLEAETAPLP
Experiment Notes: Binding affinity using [3H]diprenorphine as the radioligand against wild-type Opioid receptor mu 1 in COS-7 cells
Assay type: cell-based, Cercopithecidae

CN1CC[C@]23c4c5ccc(O)c4O[C@H]2c2[nH]c4c(c2C[C@H]3[C@H]1C5)C[C@@]1(O)[C@H]2Cc3ccc(O)c5c3[C@@]1(CCN2CC1CC1)[C@H]4O5 = 40 nM

So for CN1CC[C@]23c4c5ccc(O)c4O[C@H]2c2[nH]c4c(c2C[C@@]3(O)[C@H]1C5)C[C@@]1(O)[C@H]2Cc3ccc(O)c5c3[C@@]1(CCN2C)[C@H]4O5 , the logged Ki turned out to be > 1000 nM

So for COc1ccc2c3c1O[C@H]1c4[nH]c5c(c4C[C@@]4(O)[C@@H](C2)N(CC2CC2)CC[C@]314)C[C@@]1(O)[C@H]2Cc3ccc(O)c4c3[C@@]1(CCN2CC1CC1)[C@H]5O4 , the logged Ki turned out to be 276 nM

So for COc1ccc2c3c1O[C@H]1c4[nH]c5c(c4C[C@@]4(O)[C@@H](C2)N(CC2CC2)CC[C@]314)C[C@@]1(O)[C@H]2Cc3ccc(O)c4c3[C@@]1(CCN2C)[C@H]5O4 , the logged Ki turned out to be 165 nM

So for CC(=O)N1CC[C@]23c4c5ccc(O)c4O[C@H]2c2[nH]c4c(c2C[C@@]3(O)[C@H]1C5)C[C@@]1(O)[C@H]2Cc3ccc(O)c5c3[C@@]1(CCN2CC1CC1)[C@H]4O5 , the logged Ki turned out to be 102 nM

These measurements were taken from ChEMBL document CHEMBL1133722.
